molecular target: CK1γ1 (Homo sapiens); construct: purchased Carna Biosciences; assay: Kinase panel profiling at 1 µmol/L (mobility shift assay, Carna); format: biochemical; conditions: 1 µmol/L of BTK inhibitor
Sequence (Q9HCP0 whole entry): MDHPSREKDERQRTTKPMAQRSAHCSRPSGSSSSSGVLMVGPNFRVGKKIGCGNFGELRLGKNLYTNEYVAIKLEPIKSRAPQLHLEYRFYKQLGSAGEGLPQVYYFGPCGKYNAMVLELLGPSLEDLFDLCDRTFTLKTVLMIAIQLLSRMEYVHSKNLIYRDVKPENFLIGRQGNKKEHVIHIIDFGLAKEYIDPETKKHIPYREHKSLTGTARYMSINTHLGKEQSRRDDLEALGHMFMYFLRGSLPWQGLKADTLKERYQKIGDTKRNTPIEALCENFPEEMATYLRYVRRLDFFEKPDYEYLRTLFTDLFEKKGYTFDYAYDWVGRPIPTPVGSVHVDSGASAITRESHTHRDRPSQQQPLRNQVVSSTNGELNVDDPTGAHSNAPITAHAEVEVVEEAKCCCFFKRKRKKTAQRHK
propertyMeasured: Percentage inhibition of kinase enzyme activity (%)

{"columns": ["inputSmiles", "value"],
 "data": [
  ["O=C(c1ccc(Oc2ccccc2)cc1Cl)c1c[nH]c2ncnc(N[C@@H]3CC[C@@H](CO)OC3)c12", 0.57],
  ["CC#CC(=O)N1CCC[C@H]1c1nc(-c2ccc(C(=O)Nc3ccccn3)cc2)c2c(N)nccn12", 0.33],
  ["C=CC(=O)N1CCC[C@@H](n2nc(-c3ccc(Oc4ccccc4)cc3)c3c(N)ncnc32)C1", 3.68],
  ["COc1ccc(F)cc1C(=O)NCc1ccc(-c2nn([C@@H](C)C(F)(F)F)c(N)c2C(N)=O)cc1", 5.92]
]}

---

molecular target: BUB1/BUB3 (Homo sapiens); construct: purchased Carna Biosciences; assay: Kinase panel profiling at 1 µmol/L (mobility shift assay, Carna); assay type: biochemical; conditions: 1 µmol/L of BTK inhibitor
Sequence (O43683 whole entry): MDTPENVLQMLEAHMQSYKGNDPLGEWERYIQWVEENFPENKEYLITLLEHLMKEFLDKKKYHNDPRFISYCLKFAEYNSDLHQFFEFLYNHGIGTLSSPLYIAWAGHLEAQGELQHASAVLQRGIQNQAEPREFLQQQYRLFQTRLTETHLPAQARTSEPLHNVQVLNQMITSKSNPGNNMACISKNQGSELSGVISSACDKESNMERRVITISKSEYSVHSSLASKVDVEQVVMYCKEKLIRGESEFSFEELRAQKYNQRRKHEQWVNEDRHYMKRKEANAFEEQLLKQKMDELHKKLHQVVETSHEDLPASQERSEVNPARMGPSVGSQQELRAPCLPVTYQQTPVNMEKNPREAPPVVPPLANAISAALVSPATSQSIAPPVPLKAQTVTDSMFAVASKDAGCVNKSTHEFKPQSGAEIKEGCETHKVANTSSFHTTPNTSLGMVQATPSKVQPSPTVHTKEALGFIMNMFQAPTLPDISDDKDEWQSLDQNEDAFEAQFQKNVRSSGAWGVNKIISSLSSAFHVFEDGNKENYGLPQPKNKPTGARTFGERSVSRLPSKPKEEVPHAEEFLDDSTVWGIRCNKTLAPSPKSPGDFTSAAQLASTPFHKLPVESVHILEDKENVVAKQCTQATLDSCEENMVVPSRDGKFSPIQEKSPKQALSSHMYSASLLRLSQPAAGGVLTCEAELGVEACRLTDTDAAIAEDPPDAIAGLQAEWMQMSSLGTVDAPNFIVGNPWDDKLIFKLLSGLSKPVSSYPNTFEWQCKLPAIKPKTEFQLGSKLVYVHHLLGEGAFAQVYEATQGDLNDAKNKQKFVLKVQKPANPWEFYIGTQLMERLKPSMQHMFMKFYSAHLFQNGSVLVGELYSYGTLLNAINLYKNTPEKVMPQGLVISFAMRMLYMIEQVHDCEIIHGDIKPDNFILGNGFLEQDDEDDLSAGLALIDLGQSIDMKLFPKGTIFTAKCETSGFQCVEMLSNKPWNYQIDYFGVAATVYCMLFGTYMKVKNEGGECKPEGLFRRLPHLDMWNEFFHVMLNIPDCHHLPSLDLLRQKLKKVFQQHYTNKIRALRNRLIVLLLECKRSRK
Sequence (O43684 whole entry partner): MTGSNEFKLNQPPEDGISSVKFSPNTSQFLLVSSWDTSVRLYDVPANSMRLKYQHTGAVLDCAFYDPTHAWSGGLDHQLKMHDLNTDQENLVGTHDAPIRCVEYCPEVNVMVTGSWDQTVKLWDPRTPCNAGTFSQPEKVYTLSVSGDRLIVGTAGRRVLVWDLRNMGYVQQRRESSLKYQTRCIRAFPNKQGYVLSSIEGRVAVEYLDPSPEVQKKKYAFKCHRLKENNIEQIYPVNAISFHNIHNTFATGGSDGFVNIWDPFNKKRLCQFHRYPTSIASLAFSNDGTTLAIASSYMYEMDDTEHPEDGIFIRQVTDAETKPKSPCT
# Percentage inhibition of kinase enzyme activity values compiled below
propertyMeasured: Percentage inhibition of kinase enzyme activity (%)

{"columns": ["inputSmiles", "unitSpec", "value"],
 "data": [
  ["COc1ccc(F)cc1C(=O)NCc1ccc(-c2nn([C@@H](C)C(F)(F)F)c(N)c2C(N)=O)cc1", "%", 3.40],
  ["CC#CC(=O)N1CCC[C@H]1c1nc(-c2ccc(C(=O)Nc3ccccn3)cc2)c2c(N)nccn12", "%", 5.51],
  ["O=C(c1ccc(Oc2ccccc2)cc1Cl)c1c[nH]c2ncnc(N[C@@H]3CC[C@@H](CO)OC3)c12", "%", -0.62],
  ["C=CC(=O)N1CCC[C@@H](n2nc(-c3ccc(Oc4ccccc4)cc3)c3c(N)ncnc32)C1", "%", 5.19]
]}

---

target: CDK5/p25 (Homo sapiens, UniProt Q00535); construct: purchased Carna Biosciences; experiment: Kinase panel profiling at 1 µmol/L (mobility shift assay, Carna); format: biochemical; conditions: 1 µmol/L of BTK inhibitor
Sequence (Q00535 whole entry): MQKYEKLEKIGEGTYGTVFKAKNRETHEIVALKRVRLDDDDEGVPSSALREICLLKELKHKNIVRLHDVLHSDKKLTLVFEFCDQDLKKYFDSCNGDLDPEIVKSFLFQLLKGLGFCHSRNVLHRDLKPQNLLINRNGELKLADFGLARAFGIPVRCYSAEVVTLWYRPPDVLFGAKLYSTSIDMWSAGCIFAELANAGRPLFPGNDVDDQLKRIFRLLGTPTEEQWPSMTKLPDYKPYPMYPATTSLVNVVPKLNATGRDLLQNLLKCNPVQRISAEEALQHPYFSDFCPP
Sequence (Q15078 99-307 partner limits assumed): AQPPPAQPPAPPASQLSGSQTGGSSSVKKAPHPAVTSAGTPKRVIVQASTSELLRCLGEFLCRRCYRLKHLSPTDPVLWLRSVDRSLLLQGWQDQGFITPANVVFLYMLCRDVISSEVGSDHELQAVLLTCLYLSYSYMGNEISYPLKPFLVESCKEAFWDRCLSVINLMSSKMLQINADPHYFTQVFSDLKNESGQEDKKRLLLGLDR
propertyMeasured: Percentage inhibition of kinase enzyme activity (%)

{"columns": ["inputSmiles", "value"],
 "data": [
  ["COc1ccc(F)cc1C(=O)NCc1ccc(-c2nn([C@@H](C)C(F)(F)F)c(N)c2C(N)=O)cc1", 4.92],
  ["O=C(c1ccc(Oc2ccccc2)cc1Cl)c1c[nH]c2ncnc(N[C@@H]3CC[C@@H](CO)OC3)c12", -18.80],
  ["C=CC(=O)N1CCC[C@@H](n2nc(-c3ccc(Oc4ccccc4)cc3)c3c(N)ncnc32)C1", -5.18],
  ["CC#CC(=O)N1CCC[C@H]1c1nc(-c2ccc(C(=O)Nc3ccccn3)cc2)c2c(N)nccn12", -19.05]
]}

---

Target: PBK (Homo sapiens, UniProt Q96KB5)
Construct: purchased Carna Biosciences
Sequence (Q96KB5 1-322): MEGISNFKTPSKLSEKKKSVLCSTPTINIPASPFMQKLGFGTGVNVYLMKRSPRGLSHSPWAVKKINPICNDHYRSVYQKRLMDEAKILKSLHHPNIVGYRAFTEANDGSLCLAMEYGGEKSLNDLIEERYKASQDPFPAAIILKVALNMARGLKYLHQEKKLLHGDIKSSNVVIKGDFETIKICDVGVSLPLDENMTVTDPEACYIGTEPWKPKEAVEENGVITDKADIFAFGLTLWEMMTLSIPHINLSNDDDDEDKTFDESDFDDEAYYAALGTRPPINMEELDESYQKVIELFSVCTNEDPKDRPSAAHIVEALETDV
Experiment: Kinase panel profiling at 1 µmol/L (mobility shift assay, Carna)
Format: biochemical
Conditions: 1 µmol/L of BTK inhibitor
// Percentage inhibition of kinase enzyme activity lookup, one value per entry
propertyMeasured: Percentage inhibition of kinase enzyme activity (%)

{"columns": ["inputSmiles", "value"],
 "data": [
  ["C=CC(=O)N1CCC[C@@H](n2nc(-c3ccc(Oc4ccccc4)cc3)c3c(N)ncnc32)C1", -9.30],
  ["COc1ccc(F)cc1C(=O)NCc1ccc(-c2nn([C@@H](C)C(F)(F)F)c(N)c2C(N)=O)cc1", -3.79],
  ["CC#CC(=O)N1CCC[C@H]1c1nc(-c2ccc(C(=O)Nc3ccccn3)cc2)c2c(N)nccn12", -15.29],
  ["O=C(c1ccc(Oc2ccccc2)cc1Cl)c1c[nH]c2ncnc(N[C@@H]3CC[C@@H](CO)OC3)c12", -7.49]
]}
